- EXPERIMENTAL_PROTOCOL: gradient 5% acetonitrile 3 min, to 50% in 2 min, to 85% in 15 min, held 3 min, 100 µL/min
- REPORTED_CONDITIONS: column: Zorbax Extend-C18 2.1 x 50 mm; eluents: water / acetonitrile, 0.1% formic acid
VALUE_TYPE: RP-LC retention time (s)

(P) Brc1ccc(OCc2nnc3sc(-c4ccccn4)nn23)cc1
(Q) NC(=O)Cc1csc(NC(=O)COc2ccc3c(c2)C(=O)CC3)n1
Compare reported RP-LC retention time values for P and Q . Which is lower? Record your answer as the label of the chosen record.
Q
(Q: 600 s, P: 960 s)

Every entry's value here was drawn from the METLIN SMRT retention time set (Domingo-Almenara et al. 2019).
